Substrate: [O]=[Cr](=[O])([OH])[OH]
Assay: purified protein
Settings: 1 mM NADH, 50 mM Tris-Cl pH 7.0, 22°C
assay endpoint: kcat (s⁻¹)
Numeric only. Scale: s⁻¹

INPUT: Item YcnD_Bs (Bacillus subtilis subsp. subtilis str. 168) (protein) MNEVIKSLTDHRSIRSYTDEPVAQEQLDQIIEAVQSAPSSINGQQVTVITVQDKERKKKISELAGGQPWIDQAPVFLLFCADFNRAKIALEDLHDFKMEITNGLESVLVGAVDAGIALGTATAAAESLGLGTVPIGAVRGNPQELIELLELPKYVFPLSGLVIGHPADRSAKKPRLPQEAVNHQETYLNQDELTSHIQAYDEQMSEYMNKRTNGKETRNWSQSIASYYERLYYPHIREMLEKQGFKVEK has what recorded kcat?
OUTPUT: 0.37
